Assay: Primary redox qHTS assay for identification of artifact compounds. (AID 1845223);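 note: 0% = DMSO and 100% = reference compound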
Details: Amplex Red/HRP redox cycling with DTT, fluorescence; series mostly up to 53.8 µM
Inconclusive results are not listed. Calls of active or inactive are those of the source. Calls come from the whole dose curve; as a rule, active = well fitted activation curve with a large enough effect; inconclusive = small, poorly fitted or top-dose-only effect; inactive = flat fitted curve, though single readings scatter.
Test Readout: redox activity (% of DA3003)

C[C@H]1CCN2C[C@]34C[C@@]5(C(=O)Nc6c5ccc5c6OC=CC(C)(C)O5)C(C)(C)C3C[C@]12C(=O)N4C (stereo partly drawn): inactive
CC1(C)CC2C3=CCC4[C@@]5(C)CC[C@H](OC6OCC(O)C(OC7OC(CO)C(O)C(O)C7O)C6O)C(C)(C)C5CC[C@@]4(C)[C@]3(C)C[C@H](O)[C@@]2(CO)[C@H](OC(=O)c2ccccc2)C1 (stereo partly drawn): -2.38% [at 11.5 µM] (inactive)
COC(=O)C1=COC(O[C@@H]2O[C@H](COC(=O)/C=C/c3ccc(O)cc3)[C@@H](O)[C@H](O)[C@H]2O)C2C(CO)=CCC12 (stereo partly drawn): inactive

###

Assay: Primary fluorescence-based thiol-reactive (MSTI) qHTS assay for identification of artifact compounds. (AID 1845221); note: nearly all actives have a fitted effect of over 65% in size
Conditions: MSTI thiol-reactivity probe, 1 h; series mostly up to 53.8 µM
Records with an inconclusive call do not appear. Active and inactive are the calls of the source. Calls come from the whole dose curve; as a rule, active = well fitted inhibition curve with a large enough effect; inconclusive = small, poorly fitted or top-dose-only effect; inactive = no such curve, though single readings can be large or run the other way.
Classes to choose from: 1.0 (active), 0.0 (inactive)

Consider the following illustrative entries.
COc1c2cc(c(O[C@@H]3O[C@H](CO)[C@@H](O)[C@H](O)[C@H]3O)c1OC)CCCCC(O)CCc1ccc(O)c-2c1 (some centres undefined): 1.0
C/C=C1\[C@H](O[C@@H]2O[C@H](CO)[C@@H](O)[C@H](O)[C@H]2O)OC=C(C(=O)OCCc2ccc(O)cc2)[C@H]1CC(=O)OCCc1ccc(O)cc1: 0.0
NC(Cc1c[nH]c2ccc(O)cc12)C(=O)O (centres undefined): 1.0

Here's the next entry for you.
What call does the record list for `CC1(C)CCC[C@@]2(C)[C@H]1[C@H](O)C=C(CO)[C@]2(O)CO` ?
0.0

###

Assay: P-glycoprotein substrates identified in KB-3-1 adenocarcinoma cell line, qHTS therapeutic library screen (AID 1346986); note: nearly all actives have a fitted effect of over 60% in size
Conditions: KB-3-1 parental cells viability, CellTiter-Glo, 72 h; series mostly up to 44.5 µM
Records with an inconclusive call do not appear. The source made the active and inactive calls. The call rests on the fitted dose curve; in most records, active means well fitted inhibition curve with a large enough effect; inconclusive means small, poorly fitted or top-dose-only effect; inactive means no such curve, though single readings can be large or run the other way.
Test Readout: outcome

Known results for molecules:
Cn1cc(CCn2cnc(-c3cnn(C)c3)c2-c2ccc(C#N)cc2)cn1: inactive
CC(C/C=C/C(C)(C)O)C1CCC(C)(O)C(O)C1 (stereo not drawn): inactive
O=C(/C=C/c1ccc(O)c(O)c1)O[C@H]1[C@@H]2C=CO[C@@H](O[C@@H]3O[C@H](CO)[C@@H](O)[C@H](O)[C@H]3O)[C@@H]2[C@@]2(CO)O[C@@H]12: inactive
C=C(C(=O)OC)[C@]12O[C@@](C)(CC[C@@]3(O)/C(=C\C)C(=O)O[C@]3(C)C[C@@H]1OC(=O)C(CO)CN1CCCC1C(=O)O)CC2=O (stereo partly drawn): inactive

Which measured outcome value corresponds to `O=C(O)CCc1cc2ccoc2cc1O[C@@H]1O[C@H](CO)[C@@H](O)[C@H](O)[C@H]1O` ?
inactive

Let us now turn to CC1(C)CC[C@]2(C(=O)O[C@@H]3O[C@H](CO)[C@@H](O)[C@H](O)[C@H]3O)CC[C@]3(C)C(=CCC4[C@@]5(C)C[C@@H](O)[C@H](O)[C@@](C)(CO)C5[C@H](O)C[C@]43C)C2[C@@H]1O (stereo partly drawn)
inactive

Param item: `O=C(O)c1ccc(NC(=O)[C@H](CC2CCCC2)n2cnc(C(F)(F)F)c2)nc1`
inactive

Quick one: `COC(=O)C1=CO[C@@H](O[C@@H]2O[C@H](CO)[C@@H](O)[C@H](O)[C@H]2O)[C@@H]2[C@@H](C)[C@@H](OC(=O)/C=C/c3ccccc3)[C@@H](O)[C@H]12`
inactive
